# methodSummary: Ability to inhibit GTP-gamma-S binding to Opioid receptor delta 1 of guinea pig caudate
resultType: Ki (nM)
Give the quantity in nM, number only.

Query string: I would be grateful if you could share the reported Ki for COc1ccc2c(c1O)[C@]13CCN(CC4CC4)[C@H](C2)[C@@H]1Cc1c([nH]c2ccccc12)C3 .
Result string: 22
